Recorded values, source ChEMBL document CHEMBL1143456.

TARGET: 5-hydroxytryptamine receptor 1D (Homo sapiens, UniProt P28221)
Sequence (P28221 whole entry): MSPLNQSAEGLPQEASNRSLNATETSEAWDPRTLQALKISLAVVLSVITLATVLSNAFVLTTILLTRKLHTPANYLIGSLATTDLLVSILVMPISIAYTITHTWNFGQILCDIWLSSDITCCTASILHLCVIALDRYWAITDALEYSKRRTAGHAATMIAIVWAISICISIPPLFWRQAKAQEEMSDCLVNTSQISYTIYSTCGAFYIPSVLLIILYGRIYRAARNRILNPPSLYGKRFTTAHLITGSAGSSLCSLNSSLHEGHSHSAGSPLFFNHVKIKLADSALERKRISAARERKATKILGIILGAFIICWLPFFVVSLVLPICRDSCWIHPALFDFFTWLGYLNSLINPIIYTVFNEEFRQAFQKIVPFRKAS
TEST DETAILS: Intrinsic activity for human 5-hydroxytryptamine 1D receptor
Recorded Intrinsic activity, one value per entry.
Output: the number by itself.

COc1cc2c(cc1N1C[C@@H](C)N(C)[C@@H](C)C1)N(C(=O)Cc1cccc([N+](=O)[O-])c1)CC2 | 0.2

Query: Can you look up the measured Intrinsic activity of COc1cc2c(cc1N1CCN(C)CC1)N(C(=O)c1ccc(-c3cccc(C)n3)c3ccccc13)CC2 for me?
Result: 0.9

Query: Can you look up the measured Intrinsic activity of COc1cc2c(cc1N1CCN(C)CC1)N(C(=O)Nc1cccc(Cl)c1Cl)CC2 for me?
Result: 0.7

Query: Can you look up the measured Intrinsic activity of COc1cc2c(cc1N1C[C@@H](C)N(C)[C@@H](C)C1)N(C(=O)Nc1cccc(Cl)c1Cl)CC2 for me?
Result: 0.1

----------
Organism: Homo sapiens
TEST DETAILS: Selectivity towards human 5-hydroxytryptamine 1B receptor to that of 5-hydroxytryptamine 1A receptor
READOUT TYPE: Selectivity

// worked examples, Selectivity included
COc1cc2c(cc1N1C[C@@H](C)N(C)[C@@H](C)C1)N(C(=O)Cc1cccc([N+](=O)[O-])c1)CC2 | 125
COc1cc2c(cc1N1C[C@@H](C)N(C)[C@@H](C)C1)N(C(=O)Nc1cccc(Cl)c1Cl)CC2 | 200
CCCN1[C@H](C)CN(c2cc3c(cc2OC)CCN3C(=O)c2ccc(-c3cccc(C)n3)c3ccccc23)C[C@@H]1C | 2
COc1cc2c(cc1N1C[C@@H](C)N(C)[C@@H](C)C1)N(C(=O)c1ccc(-c3cccc(C)n3)c3ccccc13)CC2 | 160
COc1cc2c(cc1N1CCN(C)CC1)N(C(=O)Cc1cccc([N+](=O)[O-])c1)CC2 | 20
COc1cc2c(cc1N1CCN(C)CC1)N(C(=O)Nc1cccc(Cl)c1Cl)CC2 | 13
COc1cc2c(cc1N1C[C@@H](C)N[C@@H](C)C1)N(C(=O)c1ccc(-c3cccc(C)n3)c3ccccc13)CC2 | 21
CN1CCN(c2cc3c(cc2Cl)CCN3C(=O)Nc2ccc(-c3ccncc3)c3ccccc23)CC1 | 1

Query: Can you look up the measured Selectivity of COc1cc2c(cc1N1CCN(C)CC1)N(C(=O)c1ccc(-c3cccc(C)n3)c3ccccc13)CC2 for me?
Result: 6

Query: Can you look up the measured Selectivity of CCN1[C@H](C)CN(c2cc3c(cc2OC)CCN3C(=O)c2ccc(-c3cccc(C)n3)c3ccccc23)C[C@@H]1C for me?
Result: 110

----------
Recorded Intrinsic activity, one value per entry.
TARGET: UniProtKB P28222
TEST DETAILS: Intrinsic activity for human 5-hydroxytryptamine 1B receptor
Output: the number by itself.

// worked examples, Intrinsic activity included
COc1cc2c(cc1N1CCN(C)CC1)N(C(=O)c1ccc(-c3cccc(C)n3)c3ccccc13)CC2 | 0.9
COc1cc2c(cc1N1C[C@@H](C)N(C)[C@@H](C)C1)N(C(=O)Nc1cccc(Cl)c1Cl)CC2 | 0.1

Query: Can you look up the measured Intrinsic activity of COc1cc2c(cc1N1C[C@@H](C)N(C)[C@@H](C)C1)N(C(=O)c1ccc(-c3cccc(C)n3)c3ccccc13)CC2 for me?
Result: 0.3

Query: Can you look up the measured Intrinsic activity of COc1cc2c(cc1N1C[C@@H](C)N(C)[C@@H](C)C1)N(C(=O)Nc1cccc(C(F)(F)F)c1Cl)CC2 for me?
Result: 0

Query: Can you look up the measured Intrinsic activity of COc1cc2c(cc1N1C[C@@H](C)N(C)[C@@H](C)C1)N(C(=O)Nc1cccc(Cl)c1F)CC2 for me?
Result: 0.1

----------
The compounds below have reported Ki for 5-hydroxytryptamine receptor 1B (Homo sapiens).

// worked examples, Ki included
COc1cc2c(cc1N1C[C@@H](C)N[C@@H](C)C1)N(C(=O)c1ccc(-c3ccc(-c4noc(C)n4)cc3C)cc1)CC2 | 3.16 nM
CCN1[C@H](C)CN(c2cc3c(cc2OC)CCN3C(=O)c2ccc(-c3cccc(C)n3)c3ccccc23)C[C@@H]1C | 3.98 nM
CN1CCN(c2cc3c(cc2Cl)CCN3C(=O)Nc2ccc(-c3ccncc3)c3ccccc23)CC1 | 3.98 nM
COc1cc2c(cc1N1C[C@@H](C)N(C)[C@@H](C)C1)N(C(=O)Oc1cccc(C(F)(F)F)c1F)CC2 | 2.51 nM
COc1cc2c(cc1N1C[C@@H](C)N[C@@H](C)C1)N(C(=O)c1ccc(-c3ccc(N4CCCC4=O)nc3C)cc1)CC2 | 5.01 nM

Query: Query Ki on 5-hydroxytryptamine receptor 1B (Homo sapiens) for COc1cc2c(cc1N1C[C@@H](C)N(C)[C@@H](C)C1)N(C(=O)c1ccc(-c3ccc(-c4noc(C)n4)cc3C)cc1)CC2
Sequence (P28222 whole entry): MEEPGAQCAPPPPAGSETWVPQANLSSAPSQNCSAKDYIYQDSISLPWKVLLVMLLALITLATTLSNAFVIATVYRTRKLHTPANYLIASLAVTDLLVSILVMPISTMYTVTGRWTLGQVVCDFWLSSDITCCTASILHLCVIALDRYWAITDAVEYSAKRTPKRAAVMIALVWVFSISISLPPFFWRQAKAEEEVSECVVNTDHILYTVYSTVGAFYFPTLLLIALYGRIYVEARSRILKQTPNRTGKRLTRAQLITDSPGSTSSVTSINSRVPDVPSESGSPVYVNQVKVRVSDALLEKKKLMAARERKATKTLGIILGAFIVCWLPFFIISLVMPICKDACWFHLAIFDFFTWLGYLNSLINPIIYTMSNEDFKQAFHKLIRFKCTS
Result: 5.01 nM

Query: Query Ki on 5-hydroxytryptamine receptor 1B (Homo sapiens) for COc1cc2c(cc1N1CCN(C)CC1)N(C(=O)c1ccc(-c3cccc(C)n3)c3ccccc13)CC2
Result: 2 nM
